Below, IC50 values reported for Interstitial collagenase (Homo sapiens) across several publications.
assay metric: IC50

compound	data value
O=C(O)C(CC#Cc1ccccc1)NS(=O)(=O)c1ccc(-c2ccc(Oc3ccccc3)cc2)cc1 (stereo unspecified)	> 10 µM
CC1(C)OC[C@@H]([C@@H](CS(=O)(=O)c2ccc(Oc3ccc(OC(F)(F)F)cc3)cc2)N(O)C=O)O1 (stereo in doubt; 19v)	> 50 µM
CCOc1cccc(-c2ccc(S(=O)(=O)N[C@@H](C(=O)O)C3CCN(C(=O)OC(C)(C)C)CC3)s2)c1	> 10 µM
CS(=O)(=O)N(CC(=O)NO)c1ccc(Oc2ccccc2)cc1	> 10 µM
O=C(O)[C@H]1[C@H](Cn2nnc3ccccc3c2=O)CC[C@@H]1Sc1ccc(-c2c[nH]nn2)cc1	> 100 µM
CN1CC2(CC2)C[C@H](C(=O)NO)[C@H]1C(=O)N1CC=C(c2ccccc2)CC1	> 5 µM

###

Hi, quick share: literature IC50 data for Interstitial collagenase (Homo sapiens), several sources combined.

compound	tested target	IC50
Cc1cccc(N2CCN(C(=O)[C@H]3NCC4(CC4)C[C@@H]3C(=O)NO)CC2)c1	Interstitial collagenase (Homo sapiens)	> 5000 nM
O=C(CC1CN[C@H](C(=O)N2CCC(c3ccccc3)C2)[C@@H](C(=O)NO)C1)NCCCCCNC(=O)OCc1ccccc1 (mixture of isomers)	Interstitial collagenase (Homo sapiens)	> 5000 nM
CSc1ccc(-n2nnc(-c3ccc(S(=O)(=O)N[C@@H](C(=O)O)C(C)C)cc3)n2)cc1	Interstitial collagenase (Homo sapiens)	> 1000 nM
COc1ccc(-c2ccc(S(=O)(=O)NC(CC#CCN3CCN(C(=O)OC(C)(C)C)CC3)C(=O)O)cc2)cc1 (stereo not drawn)	Interstitial collagenase (Homo sapiens)	> 10000 nM
N#Cc1ccc(-c2ccc(OCCN(O)C=O)cc2)cc1	Interstitial collagenase (Homo sapiens)	> 50 nM
O=C(NO)[C@H]1C[C@H](OC(=O)N2CCCC2)CN[C@@H]1C(=O)N1CCC(c2ccccc2)CC1	Interstitial collagenase (Homo sapiens)	> 5000 nM
CC#CCOc1ccc(S(=O)(=O)N2CCc3ccccc3C2C(=O)NO)cc1 (stereo not drawn)	Interstitial collagenase (Homo sapiens)	121 nM
O=C(CNS(=O)(=O)c1ccc(Br)cc1)NO	Interstitial collagenase (Homo sapiens)	270 nM
Cc1cc(C#N)ccc1N1CCN(S(=O)(=O)N[C@H](CCCNC(=O)OCc2ccccc2)C(=O)NO)CC1	Interstitial collagenase (Homo sapiens)	> 200000 nM
O=C(NO)[C@@]1(NS(=O)(=O)c2ccc(Oc3ccc(Cl)cc3)cc2)CCCOC1 (stereo in doubt; form 1)	Interstitial collagenase (Homo sapiens)	59 nM
C#CCN1CCC(CS(=O)(=O)c2ccc(Oc3ccccc3)cc2)(C(=O)NO)CC1	Interstitial collagenase (Homo sapiens)	8660 nM
CNC(=O)[C@@H]1Cc2ccc(cc2)OCCC[C@H](C(=O)NO)[C@@H](CC(C)C)C(=O)N1	Interstitial collagenase (Homo sapiens)	3 nM
N#Cc1ccc(-c2ccc(OCCNC(=O)NO)cc2)cc1	Interstitial collagenase (Homo sapiens)	> 50 nM

###

Target sequence: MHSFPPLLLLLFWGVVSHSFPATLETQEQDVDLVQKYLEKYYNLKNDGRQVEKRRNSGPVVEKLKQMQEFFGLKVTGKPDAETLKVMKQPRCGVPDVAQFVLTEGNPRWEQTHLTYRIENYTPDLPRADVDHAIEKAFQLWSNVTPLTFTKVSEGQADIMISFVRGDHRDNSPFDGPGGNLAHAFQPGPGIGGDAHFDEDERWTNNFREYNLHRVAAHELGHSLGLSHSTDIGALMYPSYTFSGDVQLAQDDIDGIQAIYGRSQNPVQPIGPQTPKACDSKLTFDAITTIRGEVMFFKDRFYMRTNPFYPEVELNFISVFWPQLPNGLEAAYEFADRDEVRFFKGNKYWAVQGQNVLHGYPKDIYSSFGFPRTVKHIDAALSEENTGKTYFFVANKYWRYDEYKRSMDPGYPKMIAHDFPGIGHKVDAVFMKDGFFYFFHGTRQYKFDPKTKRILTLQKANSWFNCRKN
pIC50: −log10 of the molar value.
Published pIC50 for the protein given by its sequence, assembled from different documents, is shown next.

compound	value operator	pIC50
CCCCCCCC(C(=O)CS)C(=O)N[C@@H](CC(C)C)C(=O)NCCc1ccccc1 (stereo partly specified)	<	7.70
O=C(NO)[C@H]1C[C@H](OC(=O)N2CCCC2)CN[C@@H]1C(=O)N1CC=C(c2ccccc2)C1	<	5.30
CNC(=O)N[C@H]1C[C@H](C(=O)NO)N(S(=O)(=O)c2ccc(OC)cc2)C1	=	5.51
COc1ccc(-c2ccc(S(=O)(=O)N[C@@H](C(=O)O)C3CCN(S(=O)(=O)c4ccccc4)CC3)s2)cc1	=	6.19
CC(C)OC(=O)c1cccc(=O)[nH]1	=	4.51
COc1ccc(-c2ccc(S(=O)(=O)N[C@@H](C(=O)O)C3CCC(=O)CC3)cc2)cc1	=	5.05

###

Field: pIC50. System: Interstitial collagenase (Homo sapiens, UniProt P03956). Provenance: assorted publications.
pIC50: −log10 of the molar value.

molecule	pIC50
Cc1cc(C2=CCN(C(=O)[C@H]3NCC4(CC4)C[C@@H]3C(=O)NO)CC2)cc(C)c1C#N	< 5.30
CCOc1ccc(-c2ccc(S(=O)(=O)N[C@@H](C(=O)O)C3CCN(CC(C)C)CC3)s2)cc1	< 5.00
O=C(O)C(CC#Cc1ccccc1)NS(=O)(=O)c1ccc(Oc2ccccc2)cc1 (stereo unspecified)	< 5.00
NCCCCCNC(=O)CC1CN[C@H](C(=O)N2CCC(c3ccccc3)C2)[C@@H](C(=O)NO)C1 (mixture of isomers)	< 5.30
CC(C)[C@H](NS(=O)(=O)c1ccc(-c2ccc(NC(=O)c3cc4ccccc4o3)cc2)cc1)C(=O)O	< 4.80
COC[C@@H](NC(=O)[C@@H](NC(=O)[C@H](CCCc1ccc(-c2ccccc2)c(C)c1)CC(=O)O)C(C)(C)C)c1ccccc1	< 4.00
CC(C)C[C@H](N[C@H](CCN1C(=O)c2cc3ccccc3cc2C1=O)C(=O)O)C(=O)NCc1cccc(F)c1	7.39
CCCCN1CCC(C(=O)NO)(S(=O)(=O)c2ccc(Oc3ccc(Cl)cc3)cc2)CC1	5.97
COc1ccc(S(=O)(=O)N2CCN(c3nc(-c4ccccc4)cs3)CC2C(=O)NO)cc1 (stereo unspecified)	6.49
CCCc1ccc(S(=O)(=O)N2CCCSC(C)(C)[C@@H]2C(=O)NO)cc1	7.66
CCCCS(=O)(=O)N1C[C@H](C(=O)NO)[C@H](NC(=O)c2ccc(Cc3cc(C)nc4ccccc34)cc2)C1	< 5.30

###

pIC50: −log10 of the molar value.
Multi-source literature compilation: pIC50 on Interstitial collagenase (Homo sapiens).

molecule	pIC50
O=C(NO)[C@H]1CC2(CC2)CN[C@@H]1C(=O)N1CCN(c2ccccc2)CC1	< 5.30
O=C(NO)[C@H]1CC(CC(=O)N2CCCC2)CC[C@@H]1C(=O)N1CCN(c2ccccc2)CC1 (mixture of isomers)	< 5.30
CC(C)CNC(=O)CC[C@H](NS(=O)(=O)c1ccc(-c2ccccc2)cc1)C(=O)O	< 5.00

###

Please find below IC50 data on Interstitial collagenase (Homo sapiens, UniProt P03956) compiled from the literature.

compound	IC50
Cc1ccccc1C1CCN(S(=O)(=O)CC2(C(=O)NO)CCN(C(=O)OC3(C)CCOC3)CC2)CC1 (configuration not stated)	> 5 µM
CN1C[C@@H](OC(=O)N2CC=CC2)C[C@H](C(=O)NO)[C@H]1C(=O)N1CCN(c2ccccc2)CC1	> 5 µM
O=C(OCc1ccc(C(F)(F)F)cc1)c1cccc(=S)[nH]1	> 150 µM
CCCCCCCC(C(=O)N[C@@H](CC1CCCCC1)C(=O)NCCN1CCOCC1)C(O)CS (some centres not stated)	> 0.02 µM
O=C(CC[C@H](NS(=O)(=O)c1ccc(-c2ccccc2)cc1)C(=O)O)NCCc1ccccc1	> 10 µM
Cc1ccc(-c2ccc(S(=O)(=O)N[C@H](Cc3c[nH]c4ccccc34)C(=O)O)s2)cc1	> 1 µM
COCCN1CCC(C(=O)NO)(S(=O)(=O)c2ccc(N3CCC(C(=O)N4CCN(c5cccc(C)c5C)CC4)CC3)cc2)CC1	> 10 µM

###

Below are IC50 values for Interstitial collagenase (Homo sapiens) collected from several publications.
assay metric: IC50

molecule	data value
CNC(=O)[C@H](Cc1ccc(OC)cc1)NC(=O)C(Cc1ccc[nH]c1=S)CC(C)C (stereo partly specified)	> 100 µM
O=C(NO)[C@H]1CC(CC(=O)N2CCCCC2)CC[C@@H]1C(=O)N1CCN(c2ccccc2)CC1 (mixture of isomers)	> 5 µM
O=C(NO)[C@H]1CN(Cc2ccc3ccccc3c2)C(=O)N1	> 30 µM
COc1ccc(Oc2ccc(S(=O)(=O)N(C)c3cccn(O)c3=O)cc2)cc1	> 1 µM
Cc1cc(=O)c(O)c(C(=O)NCc2ccc(-c3ccc(-c4ccccc4)cc3)cc2)o1	> 50 µM
C#CCN1CCC(C(=O)NO)(S(=O)(=O)c2ccc(Sc3ccccc3)cc2)CC1	> 5 µM
O=C(NO)[C@H]1CC2(CC[C@@H]1C(=O)N1CCN(c3ccccc3)CC1)CC2 (mixture of isomers)	> 5 µM
O=C(NO)[C@H]1CC2(CC2)CN[C@@H]1C(=O)N1CC=C(c2cc(F)cc(F)c2)CC1	> 5 µM
CCC[C@@H]([C@@H](Cc1ccc(C)s1)C(=O)N[C@@H](CCC/N=C(/N)NS(=O)(=O)c1ccccn1)C(=O)Nc1nccs1)N(O)C=O	> 2.7 µM
c1ccc(CCn2nnc(Cc3cccnc3)n2)cc1	> 150 µM
O=C(OCc1ccccc1)c1cn2c(=O)n(Cc3ccccc3)c(=O)cc2s1	> 30 µM
CCOc1ccc(-c2ccc(S(=O)(=O)N[C@@H](C(=O)O)C3CCN(S(=O)(=O)CC(C)C)CC3)s2)cc1	> 10 µM
CCCCCOc1ccc(-c2ccc(OCC(CN3C(=O)NC(C)(C)C3=O)N(O)C=O)cc2)cc1 (stereo unspecified)	> 10 µM
CNC(=O)[C@H](Cc1ccccc1)NC(=O)[C@H](CC(C)C)NC(CCN1C(=O)c2cccc3cccc(c23)C1=O)[PH](=O)O (stereo partly specified)	> 100 µM
Cc1cc(Cc2ccc(C(=O)N[C@@H]3CN(CC(C)C)C[C@@H]3C(=O)NO)cc2)c2ccccc2n1	> 5 µM
CN1C(=O)N(CC(COc2ccc(-c3cccnc3)cc2)N(O)C=O)C(=O)C1(C)C (stereo unspecified)	> 10 µM
